Target: human protein kinase CK2 holoenzyme (CK2α2β2) (Homo sapiens)
Construct: made in house
Sequence (P68400 whole entry): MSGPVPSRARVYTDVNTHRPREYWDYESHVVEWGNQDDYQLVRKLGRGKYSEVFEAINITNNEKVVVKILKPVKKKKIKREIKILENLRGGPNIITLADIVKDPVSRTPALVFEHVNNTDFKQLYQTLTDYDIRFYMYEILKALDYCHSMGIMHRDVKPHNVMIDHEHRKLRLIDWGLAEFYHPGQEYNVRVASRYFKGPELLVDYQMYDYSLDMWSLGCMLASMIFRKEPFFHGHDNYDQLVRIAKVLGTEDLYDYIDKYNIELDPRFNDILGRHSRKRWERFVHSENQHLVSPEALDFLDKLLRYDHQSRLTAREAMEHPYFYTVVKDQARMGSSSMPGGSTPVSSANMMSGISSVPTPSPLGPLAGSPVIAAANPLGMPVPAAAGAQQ
Sequence (P67870 whole entry partner): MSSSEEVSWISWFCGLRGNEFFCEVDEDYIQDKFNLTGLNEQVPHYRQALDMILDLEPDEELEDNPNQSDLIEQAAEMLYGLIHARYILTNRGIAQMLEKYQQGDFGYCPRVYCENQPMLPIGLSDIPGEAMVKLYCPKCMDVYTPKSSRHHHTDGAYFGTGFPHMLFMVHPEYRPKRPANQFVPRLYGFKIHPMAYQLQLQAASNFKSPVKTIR
Experiment: CE-based CK2 inhibition assay (phosphorylation of substrate peptide […])
Format: biochemical
Settings: repeated with double the amount of the enzyme CK2, different ATP concentrations; read-out: Ki app
pKi: −log10 of the molar value.
parameterMeasured: pKi

Entry COc1ccc(N/C=C2\C(=O)CCc3c2oc2cc(Cl)c(O)c(Cl)c32)cc1 , pKi reported as ~8.40

Source: paper PMC5874719
